Origin of the recorded values: patent US20100197602A1

# Protocol notes: Cell viability in HepG2-2.2.15 cells (dye uptake) of the HBV assay
# Condition summary: human
Residues, ends and D or L forms follow the SMILES beside them.

# Molecule, viability at 144 h, 10 micrograms per ml, %
rows = [
    ("C[C@@H](O)[C@H](N)C(=O)N[C@@H](CC(=O)O)C(=O)N[C@H](C(=O)N[C@@H](CO)C(=O)N[C@@H](Cc1c[nH]cn1)C(=O)N[C@@H](Cc1c[nH]cn1)C(=O)N[C@@H](CC(=O)O)C(=O)N[C@@H](CCC(N)=O)C(=O)N[C@@H](CC(=O)O)C(=O)N[C@@H](Cc1c[nH]cn1)C(=O)N1CCC[C@H]1C(=O)N[C@H](C(=O)N[C@@H](Cc1ccccc1)C(=O)N[C@@H](CC(N)=O)C(=O)O)[C@@H](C)O)[C@@H](C)O [FGRP] (H-TDTSHHDQDHPTFN-OH)", 100),
]

---

# Protocol notes: in vitro
# Condition summary: human, CEM-SS cells
Residues, ends and D or L forms follow the SMILES beside them.

# Molecule, Unit symbol, viability at 10 micrograms per ml
records = [
    ("C[C@@H](O)[C@H](N)C(=O)N[C@@H](CC(=O)O)C(=O)N[C@H](C(=O)N[C@@H](CO)C(=O)N[C@@H](Cc1c[nH]cn1)C(=O)N[C@@H](Cc1c[nH]cn1)C(=O)N[C@@H](CC(=O)O)C(=O)N[C@@H](CCC(N)=O)C(=O)N[C@@H](CC(=O)O)C(=O)N[C@@H](Cc1c[nH]cn1)C(=O)N1CCC[C@H]1C(=O)N[C@H](C(=O)N[C@@H](Cc1ccccc1)C(=O)N[C@@H](CC(N)=O)C(=O)O)[C@@H](C)O)[C@@H](C)O [FGRP] (H-TDTSHHDQDHPTFN-OH)", "%", 100),
]

---

# Protocol notes: in vitro
# Condition summary: human, MRC-5 cells (human embryonal lung fibroblasts)
Residues, ends and D or L forms follow the SMILES beside them.

# Molecule, viability at 144 h
rows = [
    ("C[C@@H](O)[C@H](N)C(=O)N[C@@H](CC(=O)O)C(=O)N[C@H](C(=O)N[C@@H](CO)C(=O)N[C@@H](Cc1c[nH]cn1)C(=O)N[C@@H](Cc1c[nH]cn1)C(=O)N[C@@H](CC(=O)O)C(=O)N[C@@H](CCC(N)=O)C(=O)N[C@@H](CC(=O)O)C(=O)N[C@@H](Cc1c[nH]cn1)C(=O)N1CCC[C@H]1C(=O)N[C@H](C(=O)N[C@@H](Cc1ccccc1)C(=O)N[C@@H](CC(N)=O)C(=O)O)[C@@H](C)O)[C@@H](C)O [FGRP] (H-TDTSHHDQDHPTFN-OH)", "100%"),
]
